MEASURED ON: T1, human glucagon-like peptide 1 receptor (human, UniProt P43220 24-463)
T1 construct: whole, on cells; also called hGLP-1R; Human GLP-1R
ASSAY METHOD TEXT: competition of I-125 GLP-1, SPA, hGLP-1R 293HEK membranes; Ki by Cheng-Prusoff
Label met when Ki is strictly below 400 nM; at or above that, label not met.

BINDER: YXEGTFTSDYSIXLDKIAQKAXVQWLIAGGPSSGAPPPS (Aib at positions 2 and 13; K at position 20 conjugated at the epsilon-amino group with ([2-(2-Amino-ethoxy)-ethoxy]-acetyl)2-(γGlu)1-CO-(CH2)16-CO2H; 1-Nal at position 22; C-terminal primary amide, Synthetic acylated peptide, trifluoroacetate salt) [Example 6]
QUALITATIVE LABEL: met

Query: Consider the binder YXEGTFTSDYSIXLDKIAQKAFVQWLIAGGPSSGAPPPS (Aib at positions 2 and 13; K at position 20 conjugated at the epsilon-amino group with ([2-(2-Amino-ethoxy)-ethoxy]-acetyl)2-(γGlu)2-CO-(CH2)16-CO2H; C-terminal primary amide, Synthetic acylated peptide, trifluoroacetate salt) [Example 4] . Is its Ki strictly less than 400 nM?
Reply: not met

Query: Consider the binder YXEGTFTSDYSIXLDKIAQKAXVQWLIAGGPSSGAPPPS (Aib at positions 2 and 13; K at position 20 conjugated at the epsilon-amino group with ([2-(2-Amino-ethoxy)-ethoxy]-acetyl)2-(γGlu)2-CO-(CH2)18-CO2H; 1-Nal at position 22; C-terminal primary amide, Synthetic acylated peptide, trifluoroacetate salt) [Example 2] . Is its Ki strictly less than 400 nM?
Reply: met

Query: Consider the binder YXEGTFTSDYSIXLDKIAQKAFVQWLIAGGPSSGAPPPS (Aib at positions 2 and 13; K at position 20 conjugated at the epsilon-amino group with ([2-(2-Amino-ethoxy)-ethoxy]-acetyl)2-(γGlu)2-CO-(CH2)18-CO2H; C-terminal primary amide, Synthetic acylated peptide, trifluoroacetate salt) [Example 5] . Is its Ki strictly less than 400 nM?
Reply: met

Query: Consider the binder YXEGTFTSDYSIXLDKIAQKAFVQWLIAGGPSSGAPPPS (Aib at positions 2 and 13; K at position 20 conjugated at the epsilon-amino group with ([2-(2-Amino-ethoxy)-ethoxy]-acetyl)2-(γGlu)1-CO-(CH2)16-CO2H; C-terminal primary amide, Synthetic acylated peptide, trifluoroacetate salt) [Example 3] . Is its Ki strictly less than 400 nM?
Reply: not met

Query: Consider the binder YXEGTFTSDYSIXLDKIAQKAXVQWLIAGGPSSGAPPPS (Aib at positions 2 and 13; K at position 20 conjugated at the epsilon-amino group with ([2-(2-Amino-ethoxy)-ethoxy]-acetyl)2-(γGlu)1-CO-(CH2)18-CO2H; 1-Nal at position 22; C-terminal primary amide, Synthetic acylated peptide, trifluoroacetate salt) [Example 8] . Is its Ki strictly less than 400 nM?
Reply: met

Query: Consider the binder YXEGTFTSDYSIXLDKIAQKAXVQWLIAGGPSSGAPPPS (Aib at positions 2 and 13; K at position 20 conjugated at the epsilon-amino group with ([2-(2-Amino-ethoxy)-ethoxy]-acetyl)2-(γGlu)2-CO-(CH2)16-CO2H; 1-Nal at position 22; C-terminal primary amide, Synthetic acylated peptide, trifluoroacetate salt) [Example 7] . Is its Ki strictly less than 400 nM?
Reply: met

Source listed as patent US20160199438A1.
